- Assay Procedure: Cytotoxicity against human Huh7.5.1 cells infected with Hepatitis C virus JFH-1 measured 48 hrs post infection by luciferase reporter gene assay
- Assay type: cell-based, Huh-7

>  <Compound>
CC1=NN(c2ccc(Cl)cc2)C(=O)/C1=C/c1cn(CC2CO2)c2ccccc12 (stereo not drawn)

>  <Measurement Unit>
µM

>  <CC50 at 48 h>
35.3

$$$$
>  <Compound>
CC1=NN(c2ccccc2)C(=O)/C1=C/c1cn(CC(O)CNCCN2CCOCC2)c2ccccc12 (racemic)

>  <Measurement Unit>
µM

>  <CC50 at 48 h>
42.4

$$$$
>  <Compound>
CC1=NN(c2ccc(C(F)(F)F)cc2)C(=O)/C1=C/c1cn(CC(O)CNCCCN2CCOCC2)c2ccccc12 (racemic)

>  <Measurement Unit>
µM

>  <CC50 at 48 h>
11.3

$$$$
>  <Compound>
CC1=NN(c2ccc(C)cc2)C(=O)/C1=C/c1cn(CC2CO2)c2ccccc12 (stereo not drawn)

>  <Measurement Unit>
µM

>  <CC50 at 48 h>
13.2

$$$$
>  <Compound>
CC1=NN(c2ccccc2F)C(=O)/C1=C/c1cn(CC(O)CNCCCN2CCOCC2)c2ccccc12 (racemic)

>  <Measurement Unit>
µM

>  <CC50 at 48 h>
34.2

$$$$
>  <Compound>
CC1=NN(c2cccc(F)c2)C(=O)/C1=C/c1cn(C[C@@H](O)CNCCCN2CCOCC2)c2ccccc12

>  <Measurement Unit>
µM

>  <CC50 at 48 h>
23.3

$$$$
>  <Compound>
CC1=NN(c2ccc(Cl)cc2)C(=O)/C1=C/c1cn(CC(O)CNCCCN2CCOCC2)c2ccccc12 (racemic)

>  <Measurement Unit>
µM

>  <CC50 at 48 h>
17.5

$$$$
>  <Compound>
CC1=NN(c2ccc(F)cc2)C(=O)/C1=C/c1cn(CC(O)CNCCCN2CCOCC2)c2ccccc12 (racemic)

>  <Measurement Unit>
µM

>  <CC50 at 48 h>
46.5

$$$$

----------
Listed molecules paired with reported CC50 at 48 h
- Assay Procedure: Cytotoxicity against human Huh7.5.1 cells infected with Hepatitis C virus JFH-1 measured 48 hrs post infection by luciferase reporter gene assay
- Assay type: cell-based, Huh-7
Endpoint Label: CC50 at 48 h

>  <Molecule>
CC1=NN(C)C(=O)/C1=C/c1cn(CC2CO2)c2ccccc12 (centres undefined)

>  <Result>
> 50 µM

$$$$
>  <Molecule>
CC1=NN(c2ccccc2)C(=O)/C1=C/c1cn(Cc2ccccc2)c2ccccc12

>  <Result>
> 50 µM

$$$$
>  <Molecule>
CC1=NN(c2ccccc2)C(=O)/C1=C/c1cn(C[C@@H](O)CNCCCN2CCOCC2)c2ccccc12

>  <Result>
21.5 µM

$$$$
>  <Molecule>
CC1=NN(c2ccccc2)C(=O)/C1=C/c1cn(CC(O)CNCc2ccccc2)c2ccccc12 (racemic)

>  <Result>
> 50 µM

$$$$
>  <Molecule>
CCCCNCC(O)Cn1cc(/C=C2/C(=O)N(c3ccccc3)N=C2C)c2ccccc21 (racemic)

>  <Result>
> 50 µM

$$$$
>  <Molecule>
CC1=NN(c2ccc(C(F)(F)F)cc2)C(=O)/C1=C/c1cn(CC2CO2)c2ccccc12 (centres undefined)

>  <Result>
40.4 µM

$$$$
>  <Molecule>
CC1=NN(c2ccccc2)C(=O)/C1=C/c1cn(CC2CC2)c2ccccc12

>  <Result>
> 50 µM

$$$$
>  <Molecule>
CC1=NN(c2ccccc2)C(=O)/C1=C/c1cn(CC(O)CNCCCN2CCOCC2)c2ccccc12 (racemic)

>  <Result>
35.8 µM

$$$$
>  <Molecule>
CC1=NN(c2cccc(C(F)(F)F)c2)C(=O)/C1=C/c1cn(CC(O)CNCCCN2CCOCC2)c2ccccc12 (racemic)

>  <Result>
17.8 µM

$$$$
>  <Molecule>
CC1=NN(c2ccccc2)C(=O)/C1=C/c1cn(CC(O)CN2CCOCC2)c2ccccc12 (racemic)

>  <Result>
> 50 µM

$$$$
>  <Molecule>
CC1=NN(c2ccccc2)C(=O)/C1=C/c1cn(CC2CO2)c2ccccc12 (centres undefined)

>  <Result>
46.3 µM

$$$$
>  <Molecule>
COc1ccc(N2N=C(C)/C(=C\c3cn(CC(O)CNCCCN4CCOCC4)c4ccccc34)C2=O)cc1 (racemic)

>  <Result>
15.4 µM

$$$$
>  <Molecule>
CC1=NN(c2ccc(F)cc2)C(=O)/C1=C/c1cn(C[C@H](O)CNCCCN2CCOCC2)c2ccccc12

>  <Result>
> 50 µM

$$$$
>  <Molecule>
COc1ccc(N2N=C(C)/C(=C\c3cn(CC4CO4)c4ccccc34)C2=O)cc1 (centres undefined)

>  <Result>
11.9 µM

$$$$
>  <Molecule>
CC1=NN(c2ccccc2)C(=O)/C1=C/c1cn(CC(O)CNCCCCN2CCOCC2)c2ccccc12 (racemic)

>  <Result>
8.13 µM

$$$$
>  <Molecule>
CC1=NN(c2ccc(F)cc2)C(=O)/C1=C/c1cn(CC2CO2)c2ccccc12 (centres undefined)

>  <Result>
> 50 µM

$$$$
>  <Molecule>
CC1=NN(c2ccccc2)C(=O)/C1=C/c1cn(C[C@H](O)CNCCCN2CCOCC2)c2ccccc12

>  <Result>
> 50 µM

$$$$
>  <Molecule>
CC1=NN(c2ccccc2)C(=O)/C1=C/c1cn(C)c2ccccc12

>  <Result>
> 50 µM

$$$$
>  <Molecule>
CC1=NN(c2ccccc2F)C(=O)/C1=C/c1cn(CC2CO2)c2ccccc12 (centres undefined)

>  <Result>
30.4 µM

$$$$

----------
- Assay Procedure: Selectivity index, ratio of CC50 for human Huh7.5.1 cells infected with Hepatitis C virus JFH-1 to EC50 for Hepatitis C virus JFH-1 infected in human Huh7.5.1 cells
- Type: toxicity, cell-based, Huh-7
- Assay Context: read-out: Ratio CC50/EC50

>  <Compound>
COc1ccc(N2N=C(C)/C(=C\c3cn(CC4CO4)c4ccccc34)C2=O)cc1 (centres undefined)

>  <Comparison Symbol>
=

>  <selectivity ratio>
5.76

$$$$
>  <Compound>
CC1=NN(c2ccccc2)C(=O)/C1=C/c1cn(C)c2ccccc12

>  <Comparison Symbol>
>

>  <selectivity ratio>
2.36

$$$$
>  <Compound>
CC1=NN(c2ccccc2F)C(=O)/C1=C/c1cn(CC2CO2)c2ccccc12 (centres undefined)

>  <Comparison Symbol>
=

>  <selectivity ratio>
5.95

$$$$
>  <Compound>
CC1=NN(c2ccc(F)cc2)C(=O)/C1=C/c1cn(CC2CO2)c2ccccc12 (centres undefined)

>  <Comparison Symbol>
>

>  <selectivity ratio>
15.4

$$$$
>  <Compound>
CC1=NN(c2ccc(F)cc2)C(=O)/C1=C/c1cn(CC(O)CNCCCN2CCOCC2)c2ccccc12 (racemic)

>  <Comparison Symbol>
=

>  <selectivity ratio>
45.6

$$$$
>  <Compound>
CC1=NN(c2ccccc2)C(=O)/C1=C/c1cn(C[C@H](O)CNCCCN2CCOCC2)c2ccccc12

>  <Comparison Symbol>
>

>  <selectivity ratio>
40

$$$$
>  <Compound>
CC1=NN(c2ccccc2)C(=O)/C1=C/c1cn(CC2CC2)c2ccccc12

>  <Comparison Symbol>
>

>  <selectivity ratio>
2.32

$$$$
>  <Compound>
CC1=NN(c2ccc(F)cc2)C(=O)/C1=C/c1cn(C[C@@H](O)CNCCCN2CCOCC2)c2ccccc12

>  <Comparison Symbol>
=

>  <selectivity ratio>
4.86

$$$$
>  <Compound>
CC1=NN(c2ccccc2)C(=O)/C1=C/c1cn(CC(O)CN2CCOCC2)c2ccccc12 (racemic)

>  <Comparison Symbol>
>

>  <selectivity ratio>
2.29

$$$$
